Test system: UACC-257 melanoma
Assay: NCI-60 one-dose screen, 48 h (100 = growth as untreated, 0 = no growth, -100 = all killed)
Details: 10 µM unless noted
This is part of a sample that, as a whole, favours compounds with a hit. Of some 83,000 tested, about 20% had one in any assay. The source made the active and inactive calls. The calls were made as follows: active = growth percent below 10; inactive = the rest.
The following compounds are listed with their measured growth values.
assay_metric: growth

CC1=C(CCCOC(=O)CN)C2=C(C)C3(CC3)[C@@](C)(O)C(=O)C2=C1	86% (inactive)
CCCCCCC(=O)NC1=C(N2CC2)C(=O)C(NC(=O)CCCCCC)=C(N2CC2)C1=O	34.2% (inactive)
O=C1Nc2ccccc2C2c3cccn3-c3ccccc3CN12 (stereo not given)	57.3% (inactive)
C[C@]12C[C@@H](CO)[C@H](O)C[C@@H]1CC[C@@H]1[C@@H]2CC[C@]2(C)[C@@H](O)CC[C@@H]12	90.4% (inactive)
COc1cc2c(cc1OCc1ccccc1)C(CC(C)C)=[N+](C)CC2	50% (inactive)
COC(=O)CC[C@H](Cc1ccccc1)NC(=O)c1csc([C@@H](C[C@H](C(C)C)N(C)C(=O)[C@@H](NC(=O)[C@H]2CCCCN2C)C(C)C)OC(C)=O)n1	66.6% (inactive)
CCOC(=O)c1c(C)n(Cc2ccccc2)c2cc(CN(C)C)c(O)cc12	81.8% (inactive)
CC(=O)[O][Hg][O]C(C)=O	90.8% (inactive)
Cn1cc(C2=C(c3cn(C4CCN(Cc5ccccn5)CC4)c4ccccc34)C(=O)NC2=O)c2ccccc21	-0.885% (active)
COc1ccc2c(c1)c(-c1nc(-c3cn(C)c4ncccc34)cs1)cn2CCCCN1CCCCC1	-68.3% (active)
CCCCCCCC[N+](C)(CCCCCCCC)CCCCCCCC	-95.2% (active)
COC(=O)CCc1c[nH]c2ccc(N(CCCl)CCCl)cc12	85.9% (inactive)
Nc1ncnc2n[nH]nc12	58.1% (inactive)
CC1=C(CCCOC(=O)[C@H](N)CC(C)C)C2=C(C)C3(CC3)[C@@](C)(O)C(=O)C2=C1	24.4% (inactive)
NC(=S)c1cn(C2OC(CO)C(O)C2O)c2ncnc(N)c12 (stereo not given)	-1.27% (active)
COc1ccc2c(c1)c(-c1nc(-c3cn(C)c4ncccc34)cs1)cn2CCN1CCOCC1	93.2% (inactive)
CCC[CH2][Sn]([CH2]CCC)([CH2]CCC)[O]c1ccc(Cl)cc1Cl	-88.8% (active)
O=C1NC(=O)C(=Cc2cn(CCCCCCn3c4ccccc4c(=O)c4ccccc43)c3ccccc23)C(=O)N1	104% (inactive)
CC12CCC(O)CC1=CCC1C2CCC2(C)C(O)CCC12 (stereo not given)	110% (inactive)
CCn1cnc2c(Nc3cccc(Cl)c3)nc(N[C@@H]3CCCC[C@@H]3N)nc21	14.1% (inactive)

----------
Collected growth values appear next to each entry.
Test system: UACC-257 melanoma
Experiment: NCI-60 one-dose screen, 48 h (100 = growth as untreated, 0 = no growth, -100 = all killed)
Conditions: 10 µM unless noted
This is part of a sample that, as a whole, favours compounds with a hit. Of some 83,000 tested, about 20% had one in any assay.
assay_metric: growth (%)

COC(=O)[C@@H](C)C[C@H](Cc1ccccc1)NC(=O)c1csc([C@@H](C[C@H](C(C)C)N(C)C(=O)[C@@H](NC(=O)[C@H]2CCCCN2C)C(C(F)(F)F)C(F)(F)F)OC(C)=O)n1	52.4
CCCC(C)C1(CC)C(=O)NC(=O)N(C)C1=O (stereo not given)	83.6
NC(=O)c1c(Br)n(C2OC(CO)C(O)C2O)c2ncnc(N)c12 (stereo not given)	-0.624
CC1(C)C(C(=O)c2cn(CCCCF)c3ccccc23)C1(C)C	81.1
COC(=O)[C@@H](NC(=O)c1cn(CCC2CCCCC2)c2ccccc12)C(C)(C)C	73

----------
Test system: SK-MEL-2 melanoma
Assay: NCI-60 one-dose screen, 48 h (100 = growth as untreated, 0 = no growth, -100 = all killed)
Settings: 10 µM unless noted
About 83,000 compounds went through this panel and 20% of them were active in at least one assay; those are over-represented in the sample as a whole.
assay_metric: growth (%)

Cc1cnc(/C=C/C(=O)O)cc1-c1cc2c(cc1C)C(C)(C)CCC2(C)C	74.4
CC1CN1CCCCN1CC1C (configuration not stated)	80.6
O=C(Nc1ccc([As]=[As]c2ccc(NC(=O)c3ccccc3)cc2)cc1)c1ccccc1 (configuration not stated)	-81.4
CC[S][Hg][Cl]	105
CCOC(=O)N1CC1	105
CC[C@H](NC(=O)[C@H]1CCCCN1C)C(=O)N(C)[C@H](C[C@@H](OC(C)=O)c1nc(C(=O)N[C@@H](Cc2ccccc2)C[C@H](C)C(=O)O)cs1)C(C)C	36.8
Oc1c(CCl)cc(Cl)cc1CCl	105
CC(=O)O[C@H]1C(=O)[C@@]2(C)[C@H]([C@H](OC(=O)c3ccccc3)[C@]3(O)C[C@H](OC(=O)[C@H](OC(=O)OC[C@H]4COC(C)(C)O4)[C@@H](NC(=O)c4ccccc4)c4ccccc4)C(C)=C1C3(C)C)[C@]1(OC(C)=O)CO[C@@H]1C[C@@H]2O	14.3
COP(=O)(OC)C(O)c1ccc(Cl)cc1 (configuration not stated)	109
CCN(CCO)C(Cc1ccccc1)c1ccccc1 (configuration not stated)	105
O=C(NCCN1CC1)C(=O)NCCN1CC1	97.1
ClCCN(CCCl)c1ccc(OCc2ccccc2)cc1	114
CCCCCCCC[n+]1ccc2ccccc2c1	24.5
COC1OC(CO)C(O)C(O)[CH]1[Hg][O]C(C)=O (configuration not stated)	107
O[C@H](CN1CC1)[C@@H](O)CN1CC1	87
CCCCCCCCCCCCCC[P+](CCCCCC)(CCCCCC)CCCCCC	-3.57
C[Se]C(=O)c1ccccc1OC(C)=O	75.4
CC12CCC3C(C=CC4=C(N)C(=O)CCC43C)C1CCC2=O (configuration not stated)	74.4
O=[N+]([O-])c1cc([N+](=O)[O-])c(Cl)cc1Cl	-43
Clc1ccc(CSC(Cn2ccnc2)c2ccc(Cl)cc2Cl)cc1 (configuration not stated)	34.1
COc1ccc(Nc2ccnc3cc(Cl)ccc23)cc1CN(CCCl)CCCl	-46.7
COC(=O)[C@@H](C)C[C@H](Cc1ccccc1)NC(=O)c1csc([C@@H](C[C@H](C(C)C)N(C)C(=O)[C@@H](NC(=O)C23CC(NC(C)=O)(C2)C3)C2CC2)OC(C)=O)n1	49

----------
Tested on: SNB-75 CNS
Assay: NCI-60 one-dose screen, 48 h (100 = growth as untreated, 0 = no growth, -100 = all killed)
Conditions: 10 µM unless noted
The panel holds about 83,000 compounds, 20% with a hit somewhere; the sample as a whole holds those more often. The source made the active and inactive calls. How the source made its calls: active means growth percent below 10; inactive means the rest.
assay_metric: growth

CCOC(=O)[C@@H](C)C[C@H](Cc1ccccc1)NC(=O)c1csc([C@@H](C[C@H](C(C)C)N(C)C(=O)CNC(=O)[C@H]2CCCCN2C)OC(C)=O)n1	-13.4% (active)
CCCCCCCOC(C(=O)OCCN(CC)CC)(c1ccccc1)c1ccccc1	86.1% (inactive)
Fc1ccc2c(c1)c(-c1nc(-c3c[nH]c4ncccc34)cs1)cn2CCN1CCOCC1	32.9% (inactive)
COC(=O)[C@@H](C)C[C@H](Cc1ccc(F)cc1)NC(=O)c1csc([C@@H](C[C@H](C(C)C)N(C)C(=O)[C@@H](NC(=O)[C@H]2CCCCN2C)C2CC2)OC(C)=O)n1	54.3% (inactive)
Cc1c(NS(=O)(=O)c2ccccc2)ccc([N+](=O)[O-])c1Cl	75.4% (inactive)
COC(=O)[C@@H](C)C[C@H](Cc1ccccc1)NC(=O)c1cccc([C@@H](C[C@H](C(C)C)N(C)C(=O)[C@@H](NC(=O)[C@H]2CCCCN2C)C(C)C)OC(C)=O)n1	26.5% (inactive)
Fc1ccc(C2=CCNCC2)cc1	84.1% (inactive)
O=C1NC(=O)C(=Cc2cccn2CCCCCn2c3ccccc3c(=O)c3ccccc32)C(=O)N1	101% (inactive)

----------
Test system: SK-OV-3 ovarian
Assay: NCI-60 one-dose screen, 48 h (100 = growth as untreated, 0 = no growth, -100 = all killed)
Conditions: 10 µM unless noted
This is part of a sample that, as a whole, favours compounds with a hit. Of some 83,000 tested, about 20% had one in any assay.
Assign class by growth: not lower than 90% means Condition met; lower than 90% means Condition not met.

NC(CCl)CCl	Condition not met
CCCCN(CCCC)P(=O)(Oc1ccccc1)Oc1ccccc1	Condition not met
O=C1CN=C(c2ccc(Cl)cc2)c2sccc2N1	Condition met
CC(C)OC(=O)[C@H](C)NP(=O)(Oc1ccccc1)C1CCCN(O)C1=O (stereo partly drawn)	Condition met
CC[C@H](C)[C@H](NC(=O)[C@H]1CCCCN1C)C(=O)N(C)[C@H](C[C@@H](OC(C)=O)c1cccc(C(=O)N[C@@H](Cc2ccccc2)C[C@H](C)C(=O)O)n1)C(C)C	Condition not met
CC1[C@H](C)OC(=O)CC(O)CC(O)CC(O)CCC(O)C(O)C[C@]2(O)CC(O)C(C(=O)O)C(CC(OC3O[C@H](C)[C@@H](O)[C@H](N)[C@@H]3O)/C=C/C=C/C=C/C=C/CC/C=C/C=C/[C@H](C)[C@H]1O)O2 (stereo partly drawn)	Condition met
Cc1ccc2c(C(C[N+](=O)[O-])c3cccs3)c(-c3ccccc3)[nH]c2c1 (stereo not drawn)	Condition not met
